Below: a set of entries, each annotated with reported Cmax.
Assay: Multi-component pharmacokinetics in rat plasma after oral administration of RB, RPA or RB-RPA extracts (UPLC-HRMS, non-compartmental analysis)
Type: in vivo, Sprague-Dawley rats
Conditions: rat plasma, oral RB single extract 45 g-herb/kg, mean ± SD, n = 7
Method: (Beijing, China, No. SCXK2018-0011). […] All rats were free to access the water and food until 12 h before the experiment. […] So, we applied the method of switching ion modes in the detection process to quantify all analytes better. […] UPLC/MS/MS calibration and quantitation data were processed with Xcalibur workstation (Thermo-Fisher Scientific Inc., Waltham, MA, United States). […]
Form entry: value (ng/mL) — number only.

- compound: "C[C@H]1O[C@@H](O[C@H]2CC[C@@]3(C)[C@@H](CC[C@]4(C)[C@@H]3C=C[C@]35OC[C@@]6(CCC(C)(C)C[C@H]63)[C@H](O)C[C@]54C)[C@]2(C)CO)[C@H](O)[C@@H](O[C@@H]2O[C@H](CO)[C@@H](O)[C@H](O)[C@H]2O)[C@H]1O [Saikosaponin D]"
  Cmax, ng/mL: 42.84
- compound: "CC1(C)CC[C@]23CO[C@@]4(C=C[C@@H]5[C@@]6(C)CC[C@H](O)[C@@](C)(CO)[C@@H]6CC[C@@]5(C)[C@]4(C)C[C@@H]2O)[C@@H]3C1 [Saikogenin F]"
  Cmax, ng/mL: 30.25
- compound: "CC1(C)CC[C@]23CO[C@@]4(C=C[C@@H]5[C@@]6(C)CC[C@H](O)C(C)(C)[C@@H]6CC[C@@]5(C)[C@]4(C)C[C@@H]2O)[C@@H]3C1 [Saikogenin E]"
  Cmax, ng/mL: 12.31
- compound: "C[C@H]1O[C@@H](O[C@H]2CC[C@@]3(C)[C@@H](CC[C@]4(C)[C@@H]3C=CC3=C5CC(C)(C)CC[C@]5(CO)[C@H](O)C[C@]34C)[C@]2(C)CO)[C@H](O)[C@@H](O)[C@H]1O [Prosaikogenin D]"
  Cmax, ng/mL: 7.47

Next, consider the following compound.
Report Cmax, nothing else, for this compound: C[C@H]1O[C@@H](O[C@H]2CC[C@@]3(C)[C@@H](CC[C@]4(C)[C@@H]3C=C[C@]35OC[C@@]6(CCC(C)(C)C[C@H]63)[C@@H](O)C[C@]54C)[C@]2(C)CO)[C@H](O)[C@@H](O)[C@H]1O [Prosaikogenin F]
14.68

----------
test: Multi-component pharmacokinetics in rat plasma after oral administration of RB, RPA or RB-RPA extracts (UPLC-HRMS, non-compartmental analysis); format: in vivo, Sprague-Dawley rats; settings: rat plasma, oral RB-RPA mixed extracts (45 g-herb/kg RB + 45 g-herb/kg RPA), mean ± SD, n = 7
recorded-metric: AUC0-∞ (ng·h/mL)
Write the number in ng·h/mL without appending the unit.

Look over these answered cases.
- compound: "C[C@H]1O[C@@H](O[C@H]2CC[C@@]3(C)[C@@H](CC[C@]4(C)[C@@H]3C=CC3=C5CC(C)(C)CC[C@]5(CO)[C@H](O)C[C@]34C)[C@]2(C)CO)[C@H](O)[C@@H](O[C@@H]2O[C@H](CO)[C@@H](O)[C@H](O)[C@H]2O)[C@H]1O [Saikosaponin B2]"
  recorded-metric: "AUC0-∞"
  experimental-result: 104.39
- compound: "C[C@H]1O[C@@H](O[C@H]2CC[C@@]3(C)[C@@H](CC[C@]4(C)[C@@H]3C=CC3=C5CC(C)(C)CC[C@]5(CO)[C@H](O)C[C@]34C)[C@]2(C)CO)[C@H](O)[C@@H](O)[C@H]1O [Prosaikogenin D]"
  recorded-metric: "AUC0-∞"
  experimental-result: 34.59
- compound: "CC1(C)CC[C@]23CO[C@@]4(C=C[C@@H]5[C@@]6(C)CC[C@H](O)C(C)(C)[C@@H]6CC[C@@]5(C)[C@]4(C)C[C@@H]2O)[C@@H]3C1 [Saikogenin E]"
  recorded-metric: "AUC0-∞"
  experimental-result: 45.24

Given C[C@H]1O[C@@H](O[C@@H]2CC[C@@]3(C)[C@@H](CC[C@]4(C)[C@@H]3C=C[C@]35OC[C@@]6(CCC(C)(C)C[C@H]63)[C@@H](O)C[C@]54C)[C@@]2(C)CO)[C@H](O)[C@@H](O)[C@H]1O [Prosaikogenin G] , respond with its AUC0-∞.
12.94
